src = patent US20230203155A1

Exercise: state measured pKd for each of the binders provided.
Molecular target: T1, human ROR1-hFc fusion protein (extracellular domain) (human)
T1 construct: Whole entry 'human ROR1-Fc (CHO)'; also called hROR1; huROR1-Fc
T1 sequence (chain, as listed by the source limits assumed): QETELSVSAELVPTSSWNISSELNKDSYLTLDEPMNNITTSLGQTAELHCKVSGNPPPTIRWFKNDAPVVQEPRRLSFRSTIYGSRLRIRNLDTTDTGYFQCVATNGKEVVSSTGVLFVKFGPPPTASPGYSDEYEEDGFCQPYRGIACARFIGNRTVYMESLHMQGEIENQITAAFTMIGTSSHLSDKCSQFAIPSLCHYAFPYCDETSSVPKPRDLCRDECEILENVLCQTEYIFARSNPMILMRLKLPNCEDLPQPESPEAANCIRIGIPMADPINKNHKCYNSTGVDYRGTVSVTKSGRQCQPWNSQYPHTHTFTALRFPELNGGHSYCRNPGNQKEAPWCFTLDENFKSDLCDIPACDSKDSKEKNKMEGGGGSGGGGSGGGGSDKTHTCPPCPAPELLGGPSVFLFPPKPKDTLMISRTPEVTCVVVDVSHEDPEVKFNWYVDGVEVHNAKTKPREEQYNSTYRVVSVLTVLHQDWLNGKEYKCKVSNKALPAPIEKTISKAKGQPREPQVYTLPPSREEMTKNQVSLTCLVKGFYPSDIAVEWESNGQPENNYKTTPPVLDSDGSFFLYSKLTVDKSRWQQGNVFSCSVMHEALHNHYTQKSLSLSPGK
Experiment: SPR, ROR1-hFc on chip
// pKd here means minus log10 of the molar concentration (mol/L)

Inquiry: Output measured pKd for this item: P3A1 his myc (VNAR, VNAR; also called P3A1 6xHis myc) VNAR: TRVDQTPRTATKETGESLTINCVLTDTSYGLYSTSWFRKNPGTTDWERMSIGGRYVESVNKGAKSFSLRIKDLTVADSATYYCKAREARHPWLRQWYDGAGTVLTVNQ
Reply text: 7.72

Inquiry: Output measured pKd for this item: E7 his myc (VNAR, VNAR) VNAR: TRVDQTPRTATKETGESLTINCVVTGAKYGLAATYWYRKNPGSSNQERISISGRYVESVNKRTMSFSLRIKDLTVADSATYYCKAYPWAMWGQWYDGAGTVLTVNQ
Reply text: 7.95

Inquiry: Output measured pKd for this item: CPF7 his myc (VNAR, VNAR) VNAR: TRVDQTPRTATKETGESLTINCVVTGAKYGLFATYWYRKNPGSSNQERISISGRYVESVNKRTMSFSLRIKDLTVADSATYYCKAVFMPQHWHPAAHWYDGAGTVLTVNQ
Reply text: 7.87

Inquiry: Output measured pKd for this item: P3A1-[G4S]5-P3A1 his myc (VNAR, VNAR homodimer by genetic fusion; also called P3A1-P3A1; P3A1 dimer) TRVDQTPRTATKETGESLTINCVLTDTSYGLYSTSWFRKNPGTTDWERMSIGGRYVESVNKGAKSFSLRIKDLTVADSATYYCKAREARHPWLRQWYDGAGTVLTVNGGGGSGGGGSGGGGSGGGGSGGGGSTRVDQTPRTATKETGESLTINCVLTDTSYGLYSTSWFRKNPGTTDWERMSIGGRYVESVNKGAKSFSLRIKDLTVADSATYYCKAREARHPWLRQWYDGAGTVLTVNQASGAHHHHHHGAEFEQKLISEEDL
Reply text: 9.52
